parameter measured: melting point (°C)
Number in °C, nothing else.

Below are worked cases with known answers.
structure notation	units text	melting point
CSc1cccc(N2CCN(CCC3CCN(CC(C)=O)CC3)CC2)c1	°C	113
CC(=O)CN1CCC(CCN2CCN(c3cccc(C(C)=O)c3)CC2)CC1	°C	85
CC(=O)CN1CCC(CCN2CCN(c3cc(C(F)(F)F)cc(C(F)(F)F)c3)CC2)CC1.Cl.Cl	°C	260
CCc1cccc(N2CCN(CC[C@H]3CC[C@H](NC(=O)CC#N)CC3)CC2)c1	°C	142
N#CCC(=O)N[C@H]1CC[C@H](CCN2CCN(c3ccc(F)c(F)c3)CC2)CC1	°C	197

query: Looking for the measured melting point of `Cc1ccc(N2CCN(CC[C@H]3CC[C@H](NC(=O)C4=CCCC4)CC3)CC2)c(F)c1` , can you help?
result: 202

query: Looking for the measured melting point of `CCOCC(=O)N1CCC(CCN2CCN(c3cccc(C(F)(F)F)c3)CC2)CC1.Cl` , can you help?
result: 145

query: Looking for the measured melting point of `CC(=O)CN1CCC(CCN2CC=C(c3ccc(F)cc3)CC2)CC1` , can you help?
result: 72

query: Looking for the measured melting point of `CCOCC(=O)N[C@H]1CC[C@H](CCN2CCN(c3cccc(C(F)(F)F)c3F)CC2)CC1` , can you help?
result: 125

====

melting point values, listed per item
Number in °C, nothing else.

Below are worked cases with known answers.
compound	units text	melting point
CC(=O)CN1CCC(CCN2CCN(c3ccc(C)c(C(F)(F)F)c3)CC2)CC1.Cl.Cl	°C	325
CC(=O)CN1CCC(CCN2CCN(c3ccccc3Cl)CC2)CC1.Cl.Cl	°C	265
N#CCCCC(=O)N[C@H]1CC[C@H](CCN2CCN(c3ccc(Cl)cc3F)CC2)CC1 [Example 471]	°C	171
N#CCCCC(=O)N[C@H]1CC[C@H](CCN2CCN(c3cc(F)cc(C(F)(F)F)c3)CC2)CC1 [Example 665]	°C	163
N#CCC(=O)N[C@H]1CC[C@H](CCN2CCN(c3cc(C(F)(F)F)cc(C(F)(F)F)c3)CC2)CC1 [Example 107]	°C	196

Could you now consider this next compound?
query: Looking for the measured melting point of CCc1cccc(N2CCN(CC[C@H]3CC[C@@H](NC(=O)CC#N)CC3)CC2)c1 [Example 328] , can you help?
result: 101

====

melting point values, listed per item
Number in °C, nothing else.

Below are worked cases with known answers.
molecule	parameter measured	reported value
CCCc1cccc(N2CCN(CCC3CCN(CC(C)=O)CC3)CC2)c1.Cl.Cl	melting point	256
N#CCCCC(=O)N[C@H]1CC[C@H](CCN2CCN(c3cccc(SC(F)(F)F)c3)CC2)CC1 [Example 363]	melting point	150
Cc1ccc(N2CCN(CC[C@H]3CC[C@H](NC(=O)C4=CCCC4)CC3)CC2)cc1Cl [Example 491]	melting point	197
N#CCC(=O)N[C@H]1CC[C@H](CCN2CCN(c3cc(Cl)ccc3F)CC2)CC1 [Example 171]	melting point	200
N#CCCCC(=O)N[C@H]1CC[C@H](CCN2CC=C(c3ccc(F)cc3)CC2)CC1	melting point	180

query: Looking for the measured melting point of N#CCC(=O)N[C@H]1CC[C@H](CCN2CCN(c3ccc(F)c(C#N)c3F)CC2)CC1 [Example 687] , can you help?
result: 210

query: Looking for the measured melting point of O=C(N[C@H]1CC[C@H](CCN2CCN(c3cccc(C(F)(F)F)c3)CC2)CC1)C(F)(F)F [Example 38] , can you help?
result: 134

query: Looking for the measured melting point of NC(=O)CCC(=O)N[C@H]1CC[C@H](CCN2CCN(c3ccccc3)CC2)CC1 [Example 187] , can you help?
result: 252

query: Looking for the measured melting point of O=C(C[C@H]1CC[C@H](CCN2CCN(c3cccc(C(F)(F)F)c3)CC2)CC1)N1CCCC1 [Example 294] , can you help?
result: 131

query: Looking for the measured melting point of COCc1cccc(N2CCN(CC[C@H]3CC[C@H](NC(=O)CC#N)CC3)CC2)c1 [Example 270] , can you help?
result: 117

query: Looking for the measured melting point of N#CCCCC(=O)N[C@H]1CC[C@H](CCN2CCN(c3ccc(F)c(C#N)c3F)CC2)CC1 [Example 688] , can you help?
result: 203

query: Looking for the measured melting point of CCOCC(=O)N[C@H]1CC[C@H](CCN2CCN(c3cccc4c3CCCC4)CC2)CC1 [Example 117] , can you help?
result: 91

query: Looking for the measured melting point of Cc1cc(F)cc(N2CCN(CC[C@H]3CC[C@H](NC(=O)CC#N)CC3)CC2)c1 [Example 725] , can you help?
result: 180

query: Looking for the measured melting point of Cl.Cl.O=C(N[C@H]1CC[C@H](CCN2CCN(c3ccc(F)cc3F)CC2)CC1)[C@@H]1CCCN1 (stereo in doubt) , can you help?
result: 260

query: Looking for the measured melting point of CC(=O)NCC(=O)N[C@H]1CC[C@H](CCN2CCN(c3cccc(C(F)(F)F)c3)CC2)CC1 [Example 105] , can you help?
result: 187

query: Looking for the measured melting point of `N#CCCCC(=O)N[C@H]1CC[C@H](CCN2CC=C(c3ccc(C(F)(F)F)cc3)CC2)CC1` , can you help?
result: 185

query: Looking for the measured melting point of CS(=O)(=O)CC(=O)N[C@H]1CC[C@H](CCN2CCN(c3cc(C(F)(F)F)ccc3F)CC2)CC1 [Example 706] , can you help?
result: 192

query: Looking for the measured melting point of CC(=O)NCC(=O)N[C@H]1CC[C@H](CCN2CCN(c3cccc(F)c3F)CC2)CC1 [Example 145] , can you help?
result: 218

query: Looking for the measured melting point of CSc1cccc(N2CCN(CC[C@H]3CC[C@H](NC(=O)CCCC#N)CC3)CC2)c1 [Example 238] , can you help?
result: 127

query: Looking for the measured melting point of `CCc1ccccc1N1CCN(CCC2CCN(CC(C)=O)CC2)CC1.Cl.Cl` , can you help?
result: 291

query: Looking for the measured melting point of N#CCC(=O)N[C@H]1CC[C@H](CCN2CCN(c3cc(Cl)cc(Cl)c3)CC2)CC1 [Example 151] , can you help?
result: 200

query: Looking for the measured melting point of N#Cc1cccc(N2CCN(CC[C@H]3CC[C@H](NC(=O)C4=COCC4)CC3)CC2)c1 [Example 524] , can you help?
result: 165

query: Looking for the measured melting point of N#CCC(=O)N[C@H]1CC[C@H](CCN2CCN(c3cccc4cccnc34)CC2)CC1 [Example 237] , can you help?
result: 225

query: Looking for the measured melting point of O=C(N[C@H]1CC[C@H](CCN2CCN(c3cccc(C(F)(F)F)c3)CC2)CC1)C1=CCCCO1 [Example 562] , can you help?
result: 142

query: Looking for the measured melting point of Cc1ccc(F)c(N2CCN(CC[C@H]3CC[C@H](NC(=O)CCCC#N)CC3)CC2)c1 [Example 440] , can you help?
result: 156

query: Looking for the measured melting point of Cc1ccc(N2CCN(CC[C@H]3CC[C@H](NC(=O)CCCC#N)CC3)CC2)c(F)c1 [Example 485] , can you help?
result: 173
